Biological target: dopamine transporter (DAT) (Homo sapiens, UniProt Q01959)
Construct: host or cells: CHO cells (membrane preparation)
Sequence (Q01959 whole entry): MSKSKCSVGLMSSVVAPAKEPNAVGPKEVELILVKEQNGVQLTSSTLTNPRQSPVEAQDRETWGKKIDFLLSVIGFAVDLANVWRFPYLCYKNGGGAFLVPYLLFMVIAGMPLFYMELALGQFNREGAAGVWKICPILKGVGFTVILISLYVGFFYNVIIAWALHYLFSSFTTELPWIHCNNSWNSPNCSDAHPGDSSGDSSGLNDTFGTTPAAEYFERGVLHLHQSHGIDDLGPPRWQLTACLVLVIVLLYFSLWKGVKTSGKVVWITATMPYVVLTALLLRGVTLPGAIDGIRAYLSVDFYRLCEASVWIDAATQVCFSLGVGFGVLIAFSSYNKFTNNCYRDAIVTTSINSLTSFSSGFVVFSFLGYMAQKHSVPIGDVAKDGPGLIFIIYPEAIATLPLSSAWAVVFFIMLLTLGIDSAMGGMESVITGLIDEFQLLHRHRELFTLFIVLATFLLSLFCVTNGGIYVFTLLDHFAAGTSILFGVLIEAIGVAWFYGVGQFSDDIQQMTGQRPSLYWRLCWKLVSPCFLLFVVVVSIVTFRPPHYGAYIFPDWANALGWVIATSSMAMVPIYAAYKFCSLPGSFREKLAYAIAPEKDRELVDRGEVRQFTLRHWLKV
Test: Eurofins Cerep competition binding assay at dopamine transporter
Conditions: 10 μM test ligand, [3H]BTCP, recombinant transporter from CHO cells
readout.type: DAT, percent of control-specific binding (%)
Express it in %; write the number only.

Identify measured DAT, percent of control-specific binding corresponding to COc1cc(CCN)c(OC)cc1Br [2C-B] 5

* * *

Some molecules, each annotated with its measured inhibition at 10 µM.
Biological target: norepinephrine transporter (NET) (Homo sapiens)
Construct: host or cells: CHO cells (membrane preparation)
Sequence (P23975 whole entry): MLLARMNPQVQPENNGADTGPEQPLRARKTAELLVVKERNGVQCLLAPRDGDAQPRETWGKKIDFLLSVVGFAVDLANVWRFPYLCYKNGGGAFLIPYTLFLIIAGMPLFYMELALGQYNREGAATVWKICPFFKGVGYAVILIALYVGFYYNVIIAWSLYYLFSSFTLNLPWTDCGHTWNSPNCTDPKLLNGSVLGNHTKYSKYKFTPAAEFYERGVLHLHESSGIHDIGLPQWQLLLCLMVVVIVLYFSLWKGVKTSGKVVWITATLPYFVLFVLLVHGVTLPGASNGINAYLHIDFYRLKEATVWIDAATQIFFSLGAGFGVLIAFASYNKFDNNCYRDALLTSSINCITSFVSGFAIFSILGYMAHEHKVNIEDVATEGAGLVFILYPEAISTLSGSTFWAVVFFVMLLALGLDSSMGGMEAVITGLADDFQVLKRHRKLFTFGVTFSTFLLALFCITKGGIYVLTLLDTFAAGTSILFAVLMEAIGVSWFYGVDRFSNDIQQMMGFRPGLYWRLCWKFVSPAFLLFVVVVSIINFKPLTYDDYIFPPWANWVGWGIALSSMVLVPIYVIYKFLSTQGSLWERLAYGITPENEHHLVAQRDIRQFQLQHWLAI
Test: Eurofins Cerep competition binding assay at norepinephrine transporter
Settings: read-out: NET, percent of control-specific binding, 10 μM test ligand, [3H]nisoxetine, recombinant transporter from CHO cells
Express it in %; write the number only.

Known results for molecules:
N[C@@H](Cc1c[nH]c2ccccc12)C(=O)O [tryptophan]    1
COc1cc(CCN)cc(OC)c1OC [mescaline, 3,4,5 trimethoxyphenethylamine]    -9
Cc1ccc(Sc2ccccc2N2CCNCC2)c(C)c1 [vortioxetine]    99
N#Cc1ccc2[nH]cc(CCCCN3CCN(c4ccc5oc(C(N)=O)cc5c4)CC3)c2c1 [Vilazodone, vilazodone]    99

Identify measured inhibition at 10 µM corresponding to NCCc1c[nH]c2ccc(O)cc12 [serotonin] -3

* * *

Some compounds, each annotated with its measured inhibition at 10 µM.
Molecular target: 5-HT2B receptor (Homo sapiens, UniProt P41595)
Construct: host or cells: CHO cells (membrane preparation)
Sequence (P41595 whole entry): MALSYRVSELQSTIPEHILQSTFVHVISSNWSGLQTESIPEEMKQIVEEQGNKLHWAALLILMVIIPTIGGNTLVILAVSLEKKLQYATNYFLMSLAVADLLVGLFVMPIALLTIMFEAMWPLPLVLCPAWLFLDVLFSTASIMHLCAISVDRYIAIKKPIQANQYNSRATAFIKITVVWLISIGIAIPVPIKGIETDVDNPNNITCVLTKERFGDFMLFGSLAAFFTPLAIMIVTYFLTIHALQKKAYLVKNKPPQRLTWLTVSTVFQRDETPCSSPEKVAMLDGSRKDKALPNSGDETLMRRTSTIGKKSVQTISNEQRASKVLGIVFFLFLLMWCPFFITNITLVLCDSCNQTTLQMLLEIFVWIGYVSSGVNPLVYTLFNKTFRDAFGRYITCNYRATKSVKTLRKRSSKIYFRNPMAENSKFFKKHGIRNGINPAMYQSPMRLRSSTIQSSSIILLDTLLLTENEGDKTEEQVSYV
Experiment: Eurofins Cerep competition binding assay at 5-HT2B receptor
Conditions: 10 μM test ligand, [3H]mesulergine, recombinant receptor from CHO cells; read-out: HT2B, percent of control-specific binding
Express it in %; write the number only.

Known results for compounds:
N[C@@H](Cc1c[nH]c2ccccc12)C(=O)O [tryptophan]    0
CC(C(F)c1ccc2c(c1)OCO2)N(C)Cc1ccccc1 (single isomer, unassigned) [D(III) as diast. (vii)]    29
Cc1ccc(Sc2ccccc2N2CCNCC2)c(C)c1 [vortioxetine]    97
CN(C)CCCN1c2ccccc2CCc2ccccc21 [Imipramine, imipramine]    94
N#Cc1ccc2[nH]cc(CCCCN3CCN(c4ccc5oc(C(N)=O)cc5c4)CC3)c2c1 [Vilazodone, vilazodone]    96
CC(NC(C)(C)C)C(=O)c1cccc(Cl)c1 (centres unmarked) [Bupropion, bupropion]    -2

// fetch inhibition at 10 µM for CCCOc1c(OC)cc(CCN)cc1OC [proscaline] ; system: 5-HT2B receptor (Homo sapiens, UniProt P41595) 85

// fetch inhibition at 10 µM for COc1ccc2cccc(CCNC(C)=O)c2c1 [Agomelatine, agomelatine] ; system: 5-HT2B receptor (Homo sapiens, UniProt P41595) 93

// fetch inhibition at 10 µM for CNCC[C@H](Oc1cccc2ccccc12)c1cccs1 [Duloxetine, duloxetine] ; system: 5-HT2B receptor (Homo sapiens, UniProt P41595) 95

// fetch inhibition at 10 µM for CC(C(=O)c1ccc2c(c1)OCO2)N(C)Cc1ccccc1 (racemic) [A(III)] ; system: 5-HT2B receptor (Homo sapiens, UniProt P41595) 32

// fetch inhibition at 10 µM for COc1cc(CCN)cc(OC)c1OC [mescaline, 3,4,5 trimethoxyphenethylamine] ; system: 5-HT2B receptor (Homo sapiens, UniProt P41595) 80

// fetch inhibition at 10 µM for COc1ccc2[nH]cc(CCNC(C)=O)c2c1 [Melatonin, melatonin] ; system: 5-HT2B receptor (Homo sapiens, UniProt P41595) 52

// fetch inhibition at 10 µM for CC(C(=O)c1ccc2c(c1)OCO2)N1CCCC1 (racemic) [A(I)] ; system: 5-HT2B receptor (Homo sapiens, UniProt P41595) 19

// fetch inhibition at 10 µM for O=c1n(CCCN2CCN(c3cccc(Cl)c3)CC2)nc2ccccn12 [Trazodone, trazodone] ; system: 5-HT2B receptor (Homo sapiens, UniProt P41595) 97
